- Target or test system: ΔF508-CFTR (Homo sapiens, UniProt P13569, DEL508-508)
- Construct: host or cells: CFBE41o-, doxycycline-inducible
- Sequence (P13569 with tags, fused parts or gaps DEL508-508): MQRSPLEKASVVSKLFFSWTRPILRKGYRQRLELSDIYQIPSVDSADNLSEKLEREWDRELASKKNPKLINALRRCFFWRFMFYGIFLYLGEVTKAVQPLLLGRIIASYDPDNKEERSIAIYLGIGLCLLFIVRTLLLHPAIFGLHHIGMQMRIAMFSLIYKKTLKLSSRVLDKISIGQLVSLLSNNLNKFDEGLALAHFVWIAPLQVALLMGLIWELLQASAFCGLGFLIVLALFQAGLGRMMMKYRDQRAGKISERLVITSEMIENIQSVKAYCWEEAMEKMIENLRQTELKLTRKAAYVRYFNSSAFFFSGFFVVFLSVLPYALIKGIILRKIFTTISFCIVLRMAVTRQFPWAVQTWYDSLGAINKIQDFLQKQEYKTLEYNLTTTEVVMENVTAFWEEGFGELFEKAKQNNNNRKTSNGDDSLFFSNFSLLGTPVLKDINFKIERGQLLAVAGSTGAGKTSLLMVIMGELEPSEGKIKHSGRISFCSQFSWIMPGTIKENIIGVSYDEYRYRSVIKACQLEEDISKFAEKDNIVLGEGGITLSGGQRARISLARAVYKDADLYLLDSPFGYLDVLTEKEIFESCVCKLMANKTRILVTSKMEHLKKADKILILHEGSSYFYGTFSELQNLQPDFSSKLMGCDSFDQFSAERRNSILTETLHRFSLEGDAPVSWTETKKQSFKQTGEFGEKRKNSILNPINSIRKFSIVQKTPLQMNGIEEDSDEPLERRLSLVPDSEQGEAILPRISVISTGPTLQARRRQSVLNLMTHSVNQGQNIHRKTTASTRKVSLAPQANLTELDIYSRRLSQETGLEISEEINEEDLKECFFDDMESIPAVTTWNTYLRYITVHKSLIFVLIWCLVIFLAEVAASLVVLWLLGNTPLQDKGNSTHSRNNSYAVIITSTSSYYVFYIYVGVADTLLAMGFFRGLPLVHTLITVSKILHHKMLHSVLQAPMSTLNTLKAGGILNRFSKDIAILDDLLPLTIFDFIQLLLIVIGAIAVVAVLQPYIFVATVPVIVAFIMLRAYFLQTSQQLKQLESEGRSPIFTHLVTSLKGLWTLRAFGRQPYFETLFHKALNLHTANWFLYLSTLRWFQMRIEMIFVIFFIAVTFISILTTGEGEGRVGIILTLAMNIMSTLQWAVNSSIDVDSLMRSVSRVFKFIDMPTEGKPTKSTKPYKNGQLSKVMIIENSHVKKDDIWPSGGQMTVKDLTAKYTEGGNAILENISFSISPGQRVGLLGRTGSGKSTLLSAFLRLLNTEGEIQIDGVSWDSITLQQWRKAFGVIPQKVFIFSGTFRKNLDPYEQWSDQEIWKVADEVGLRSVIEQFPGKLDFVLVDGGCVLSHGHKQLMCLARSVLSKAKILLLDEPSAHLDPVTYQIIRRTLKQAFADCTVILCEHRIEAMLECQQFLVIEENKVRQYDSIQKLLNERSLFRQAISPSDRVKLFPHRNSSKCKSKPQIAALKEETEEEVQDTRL
- Assay remarks: CFTR cell surface levels using HRP-tagged ΔF508-CFTR expressing CFBE cells, intrinsic corrector capacity
- Format: cell-based
- Stated conditions: HRP-tagged ΔF508-CFTR expressing CFBE41o- cells; compound alone (intrinsic corrector capacity); 20 hours at 33° C.; read-out: EC50
Property name: EC50 (µM)

| Compound | Result |
| --- | --- |
| COCCS(=O)(=O)NC(=O)c1cc(N2CCC(N3CCCCC3)CC2)c2c(C3CCC3)nn(-c3ccc(F)cc3)c2n1 | 0.655 |
| COCCN(CCOC)c1ccc(-c2cc(C(=O)NS(C)(=O)=O)nc3c2c(C2CCC2)nn3-c2ccccc2)cn1 | 0.371 |
| CCS(=O)(=O)NC(=O)c1cc(-c2ccc(N(C)C)nc2)c2c(C(C)C)nn(-c3cccc(N4CCOCC4)c3)c2n1 | 0.372 |
| COCC1CCN(c2cc(C(=O)NS(C)(=O)=O)nc3c2c(C2CCC2)nn3-c2ccc(F)cc2)CC1 | 0.183 |
| CC(C)c1nn(C2CCCCC2)c2nc(C(=O)NS(C)(=O)=O)cc(-c3ccc(N(C)C4CCOCC4)nc3)c12 | 0.457 |
| Cc1nn(C2CCCCC2)c2nc(C(=O)NS(C)(=O)=O)cc(-c3cnc(N(C)C)nc3)c12 | 2.57 |
| CO[C@H]1C[C@@H](c2nn(-c3ccccc3)c3nc(C(=O)NS(C)(=O)=O)cc(-c4ccc(N5CCC(C#N)CC5)nc4)c32)C1 | 0.745 |
| CN(C)S(=O)(=O)NC(=O)c1cc(N2CCC3C(CCN3C3CCC3)C2)c2c(C3CCC3)nn(-c3ccc(F)cc3)c2n1 (centres unmarked) | 0.151 |
| COCCN(C)c1ccc(-c2cc(C(=O)NS(C)(=O)=O)nc3c2c(C(C)C)nn3-c2cccc(N(C)C)c2)cn1 | 0.66 |
| COC(=O)N1CC(c2nn(-c3cc(F)cc(F)c3)c3nc(C(=O)NS(C)(=O)=O)cc(-c4ccc(NC(C)=O)cc4)c23)C1 | 3.34 |
| CC(C)Oc1nn(C2CCCCC2)c2nc(C(=O)NS(C)(=O)=O)cc(-c3ccc(C(=O)N4CCN(C)CC4)cc3)c12 | 0.318 |
| CN(C)S(=O)(=O)NC(=O)c1cc(N2CCC(N3CCC(O)CC3)CC2)c2c(C3CCC3)nn(-c3ccc(F)cc3)c2n1 | 0.317 |
| COC1CCN(c2cc(C(=O)NS(=O)(=O)C3CCOCC3)nc3c2c(C2CCC2)nn3-c2ccccc2)CC1 | 0.34 |
| Cc1cccc(-n2nc(C3CCC3)c3c(N4CCC(N5CCOCC5)CC4)cc(C(=O)NS(=O)(=O)N(C)C)nc32)c1 | 0.144 |

====

- Target or test system: ΔF508-CFTR (Homo sapiens, UniProt P13569, DEL508-508)
- Construct: host or cells: CFBE41o-, doxycycline-inducible
- Assay remarks: CFTR cell surface levels using HRP-tagged ΔF508-CFTR expressing CFBE cells, in the presence of a co-corrector
- Assay type: cell-based
- Stated conditions: HRP-tagged ΔF508-CFTR CFBE cells, in the presence of 3 μM co-corrector; read-out: EC50
pEC50: −log10 of the molar value.
Label rule met for high-side pEC50 (at or above 7) and rule not met for low-side pEC50 (below it).

| Molecule | Target or test system | Class assignment |
| --- | --- | --- |
| Cc1nn(C2CCCCC2)c2nc(C(=O)NS(C)(=O)=O)cc(-c3ccc(N4CCOCC4)nc3)c12 [Compound 47] | ΔF508-CFTR (Homo sapiens, UniProt P13569, DEL508-508) | rule not met |
| CCOC(=O)N1CCN(c2cc(C(=O)NS(C)(=O)=O)nc3c2c(C(C)C)nn3-c2ccc(F)cc2)CC1 [Compound 337] | ΔF508-CFTR (Homo sapiens, UniProt P13569, DEL508-508) | rule met |
| CCS(=O)(=O)NC(=O)c1cc(-c2ccc(N3CCOCC3)cc2)c2c(C(C)C)nn(C3CCCCC3)c2n1 [Compound 45] | ΔF508-CFTR (Homo sapiens, UniProt P13569, DEL508-508) | rule not met |
| CN(C)S(=O)(=O)NC(=O)c1cc(N2CCC(N3CCOC(C#N)C3)CC2)c2c(C3CCC3)nn(-c3ccc(F)cc3)c2n1 (centres unmarked) [Compound 527] | ΔF508-CFTR (Homo sapiens, UniProt P13569, DEL508-508) | rule met |
| CCS(=O)(=O)NC(=O)c1cc(-c2ccc(N(C)C3CCOCC3)nc2)c2c(C(C)C)nn(C3CCCCC3)c2n1 [Compound 90] | ΔF508-CFTR (Homo sapiens, UniProt P13569, DEL508-508) | rule not met |
| CCS(=O)(=O)NC(=O)c1cc(-c2ccc(N(C)C)nc2)c2c(C3CC3)nn(C3CCCCC3)c2n1 [Compound 92] | ΔF508-CFTR (Homo sapiens, UniProt P13569, DEL508-508) | rule not met |
| C#CCCS(=O)(=O)NC(=O)c1cc(N2CCC(N3CCOCC3)CC2)c2c(C3CCC3)nn(-c3ccc(F)cc3)c2n1 [Compound 477] | ΔF508-CFTR (Homo sapiens, UniProt P13569, DEL508-508) | rule met |
| O=C(NS(=O)(=O)N1CCC(N2CCCCC2)CC1)c1cc(N2CCC(N3CCOCC3)CC2)c2c(C3CCC3)nn(-c3ccccc3)c2n1 [Compound 453] | ΔF508-CFTR (Homo sapiens, UniProt P13569, DEL508-508) | rule not met |
| CC(C)(C)S(=O)(=O)NC(=O)c1cc(N2CCC(CN3CCCC3)CC2)c2c(C3CCC3)nn(-c3ccccc3)c2n1 [Compound 465] | ΔF508-CFTR (Homo sapiens, UniProt P13569, DEL508-508) | rule not met |
| COCCS(=O)(=O)NC(=O)c1cc(N2CCC(N3CCOCC3)CC2)c2c(C3CCC3)nn(C3CCCCC3)c2n1 [Compound 419] | ΔF508-CFTR (Homo sapiens, UniProt P13569, DEL508-508) | rule not met |
